Tested on: SF-539
experiment_description: NCI tumour cell line growth inhibition, 48 h
Activity calls are given as the source filed them. Cut-off read from the data, not from the text of the source: active = GI50 up to about 1.1 µM and inactive = higher. Peptide text beside a SMILES is read from it. * marks the point of attachment. Cbz = O=C(OCc1ccccc1)*; NHNH2 = NN*

# molecule, GI50
rows = [
    ("COC(=O)CC(NC(=O)OCc1ccccc1)C(=O)NC(CC(=O)OC)C(=O)NC(CC(=O)OC)C(=O)NC(CC(=O)OC)C(=O)NC(CC(=O)OC)C(=O)NC(CC(=O)OC)C(=O)NN (stereo not given) (Cbz-D(OMe)D(OMe)D(OMe)D(OMe)D(OMe)D(OMe)-NHNH2; configuration not given here)", "> 100 µM (inactive)"),
    ("Cc1cc(N(CCC#N)CCC#N)ccc1/C=C1N=C(/C=C\\c2ccccc2)OC\\1=O", "> 100 µM (inactive)"),
    ("C(=N\\Nc1nnc2c(n1)[nH]c1ccccc12)/c1cccnc1", "> 100 µM (inactive)"),
    ("COc1ccc2nc3cc(Cl)ccc3c(Nc3ccccc3-c3ccccc3Nc3c4ccc(Cl)cc4nc4ccc(OC)cc34)c2c1", "24.2 µM (inactive)"),
    ("CC1c2ccccc2Cn2cc3c(c21)C(=O)c1cccc(OP(=O)(O)OCc2ccccc2)c1C3=O (stereo not given)", "> 100 µM (inactive)"),
]

* * *

Test system: M14
experiment_description: NCI tumour cell line growth inhibition, 48 h
Active and inactive are the calls of the source. Rule as the data show it: active = GI50 up to about 1.1 µM and inactive = higher.
Labels: active, inactive

# compound, study_target, group_label
rows = [
    ("O=c1ccs[nH]1", "M14", "inactive"),
    ("O=C(C#Cc1ccccc1)NC/C=C/c1ccccc1", "M14", "inactive"),
    ("CC(=O)c1c(O)nnc(-c2ccc(Cl)cc2)c1-c1ccc(Cl)cc1", "M14", "inactive"),
    ("CC(=O)O/C=C\\OC1CCCC1", "M14", "inactive"),
    ("CC1OC(OC2C(OC(=O)[C@]34CCC(C)(C)C[C@H]3C3=CC[C@@H]5[C@@]6(C)CC[C@H](OC7OC(CO)C(O)C(O)C7OC7OC(CO)C(O)C(O)C7O)C(C)(C)[C@@H]6CC[C@@]5(C)[C@]3(C)CC4)OCC(O)C2O)C(O)C(O)C1OC1OCC(O)C(O)C1O (stereo not given in full)", "M14", "inactive"),
    ("COc1cccc(/C=C2\\SC(=S)N(/C=C3\\C(=O)Oc4ccccc4C3=O)C2=O)c1O", "M14", "inactive"),
    ("CCCCCCCCCCCCCCCCCCNc1ccn(C2OC(COP(=O)(O)OCC(COP(=O)(O)OCC3OC(n4cc(C)c(=O)[nH]c4=O)CC3N=[N+]=[N-])OCCCCCCCCCCCCCCCCCC)C(O)C2O)c(=O)n1 (stereo not given)", "M14", "inactive"),
    ("O=[N+]([O-])c1ccc2sc(/C=N/c3cnccn3)cc2c1", "M14", "inactive"),
    ("NC(CNO)C(=O)O (stereo not given)", "M14", "inactive"),
    ("O=[N+]([O-])c1cc(-c2ccc([As](=O)(O)O)cc2)ccc1[As](=O)(O)O", "M14", "inactive"),
    ("COC(=O)CC1(O)C(=O)OCc2c1cc1n(c2=O)Cc2c-1nc1ccccc1c2OC (stereo not given)", "M14", "active"),
    ("C[C@@H]1CCC2[C@@H](C)[C@@H](OCCO[C@H]3OC4O[C@@]5(C)CCC6[C@H](C)CCC([C@H]3C)[C@@]46OO5)OC3O[C@@]4(C)CCC1[C@]32OO4 (stereo not given in full)", "M14", "active"),
    ("COc1cc(C2C(Cl)C(=O)N2c2c(C)n(C)n(-c3ccccc3)c2=O)ccc1O (stereo not given)", "M14", "inactive"),
    ("c1cc(-c2ccsc2-c2ccsc2)cs1", "M14", "inactive"),
    ("c1cnc2c(c1)Nc1cnncc1S2", "M14", "inactive"),
]

* * *

System: OVCAR-8
experiment_description: NCI tumour cell line growth inhibition, 48 h
Calls of active or inactive are those of the source. Rule as the data show it: active = GI50 up to about 1.1 µM and inactive = higher.
Outcomes: active, inactive

# compound, study_target, group_label
rows = [
    ("Nc1nc(-c2cccnc2)cc(-c2cc(-c3cccnc3)nc(N)n2)n1", "OVCAR-8", "inactive"),
    ("CN(C(=O)C1(C(=O)C=[N+]=[N-])CC1)c1ccccc1", "OVCAR-8", "inactive"),
    ("NN/C(=N\\S(=O)(=O)c1ccc(-c2ccccn2)s1)Nc1ccc(Cl)cc1", "OVCAR-8", "inactive"),
    ("CN(Cc1cnc2nc(N)nc(N)c2n1)c1ccc(C(=O)NC(CCC(=O)O)C(=O)O)cc1C(F)(F)F (stereo not drawn)", "OVCAR-8", "active"),
    ("O=C1C(O)=C(C(CCc2ccccc2)C2=C(O)C(=O)c3ccccc3C2=O)C(=O)c2ccccc21", "OVCAR-8", "inactive"),
    ("CC1Cc2c(cc(N)nc2Br)NC1=O (stereo not drawn)", "OVCAR-8", "inactive"),
    ("CN1N=CSC12C(=O)N(c1ccc(Cl)cc1)C(=O)N2c1ccc(Cl)cc1 (stereo not drawn)", "OVCAR-8", "inactive"),
    ("C=C1[C@H](OCC(C)C)[C@@H](O)[C@@H](OC(=O)c2cccnc2)C(C)(C)/C=C/[C@H](C)[C@H](OC(C)=O)[C@@]2(O)C[C@@](C)(OC(C)=O)[C@H](OC(=O)c3ccccc3)[C@@H]2[C@H]1OC(C)=O", "OVCAR-8", "inactive"),
]

* * *

Tested on: HOP-62
experiment_description: NCI tumour cell line growth inhibition, 48 h
The source made the active and inactive calls. No stated cut-off is given here; in the data, active = GI50 up to about 1.1 µM and inactive = higher.

# molecule, GI50
data = [
    ("CC(C)C(C/C=C1/CC(CO)(COC(=O)c2ccccc2)OC1=O)C(C)C (stereo unspecified)", "9.93 µM (inactive)"),
    ("CCOC(=O)[C@H]1Nc2ccc(OC)cc2C2c3ccccc3CC21 (stereo partly specified)", "> 100 µM (inactive)"),
    ("COC(=O)Cc1cccc2c1CCC2=O", "> 100 µM (inactive)"),
    ("CCOC(OCC)C(CCc1ccccc1)c1c(N)nc(N)[nH]c1=O (stereo unspecified)", "> 100 µM (inactive)"),
    ("COc1ccc(OC)c2sc(N3C(=O)/C(=C/c4cccc(Oc5ccccc5)c4)N=C3c3ccccc3)nc12", "> 100 µM (inactive)"),
    ("CCOC(=O)/C=C/C(=O)O/C=C/[N+](=O)[O-]", "> 100 µM (inactive)"),
]

* * *

Reported GI50 values for a set of molecules
System: ACHN
experiment_description: NCI tumour cell line growth inhibition, 48 h
The source made the active and inactive calls. No stated cut-off is given here; in the data, active = GI50 up to about 1.1 µM and inactive = higher.
reported_metric: GI50

# molecule, endpoint_value
data = [
    ("CN(C)c1ccc(C=c2c3cc(O)ccc3n3c2cc(-c2ccccc2)[n+]3C)cc1", "7.78 µM (inactive)"),
    ("COc1ccc(/C(=N/Nc2ccccc2)C(c2ccc(OC)cc2)C2OC(=O)c3ccccc32)cc1 (centres undefined)", "97.1 µM (inactive)"),
    ("CC1=C(O)C(=O)c2ccccc2C1=O", "58.7 µM (inactive)"),
    ("N=C(N)NS(=O)(=O)c1ccc(NCc2cccc3c(=O)c4ccc(Cl)cc4oc23)cc1", "7.6 µM (inactive)"),
]

* * *

System: NCI-H460
experiment_description: NCI tumour cell line growth inhibition, 48 h
The source made the active and inactive calls. Rule as the data show it: active = GI50 up to about 1.1 µM and inactive = higher.

# compound, GI50
rows = [
    ("Cc1cc(C)nc(NS(=O)(=O)c2ccc(NN=c3c4ccccc4n(C)c4ccccc34)cc2)n1", "29.6 µM (inactive)"),
    ("CCCCCCCSCC(O)COC(c1ccccc1)(c1ccccc1)c1ccccc1 (stereo not given)", "30.1 µM (inactive)"),
    ("O=C1Nc2ccccc2C1=Nc1ccc(S(=O)(=O)Nc2nccs2)cc1", "> 100 µM (inactive)"),
    ("C/C(=N\\Oc1cc(Cl)ncn1)c1ccccn1", "25.3 µM (inactive)"),
    ("O=C(O)CNC(=O)C(CSC(=O)OCC1c2ccccc2-c2ccccc21)NC(=O)CCC(NC(=O)OCC1c2ccccc2-c2ccccc21)C(=O)O (stereo not given)", "18.6 µM (inactive)"),
    ("COC(=O)[C@@H]1C[C@H]2[C@H](c3ccccc3Br)[C@@H](OC(C)=O)[C@@H](OCc3ccccc3)ON2O1", "92.3 µM (inactive)"),
    ("O=C1N[C@H]2C(=O)c3c(Br)sc(Br)c3[C@H]2O1", "16.8 µM (inactive)"),
    ("CO/N=C(/C(=O)OC)c1ccccc1COc1cccc(C(F)(F)F)c1", "28.8 µM (inactive)"),
    ("Cc1ccc(/C=C/C(=O)c2sc(-c3cccnc3)nc2C)cc1", "> 100 µM (inactive)"),
    ("OC1CC1Sc1ccccc1 (stereo not given)", "65.2 µM (inactive)"),
    ("O=C1CSC(/C(=C\\c2ccc(Cl)cc2)c2nc3ccccc3[nH]2)=N1", "13.3 µM (inactive)"),
    ("O=C1C(Cl)C(c2ccc(Cl)cc2)N1n1cnc2ccccc2c1=O (stereo not given)", "> 100 µM (inactive)"),
    ("C1CSC(Sc2nc(SC3=NCCS3)nc(SC3=NCCS3)n2)=N1", "> 100 µM (inactive)"),
    ("COc1ccc(C2=NN(C(=O)c3ccccc3)C(O)(c3cc(F)c(Cl)cc3Cl)C2)cc1OC (stereo not given)", "83.2 µM (inactive)"),
    ("COc1cc(C2C(Cl)C(=O)N2c2c(C)n(C)n(-c3ccccc3)c2=O)ccc1O (stereo not given)", "23.6 µM (inactive)"),
]
